Test system: MCF7 breast
Method Description: NCI tumour cell line growth inhibition, 48 h
Readout Label: TGI (µM)
State just the number; it will be interpreted in µM.

Past entries and their recorded results:
CCc1ccc(Nc2cc(C)c3ccc(O)cc3n2)cc1: 22.4
CCN1/C(=C/C#C/C(C)=C\c2sc3ccc(Cl)cc3[n+]2CC)Sc2ccc(Cl)cc21: 15.3
C=C(CN1CCc2[nH]c3ccc(F)cc3c2C1)c1ccc(C(=O)Nc2ccccc2N)cc1: 69.2
C=C1CC[C@@H](CCC2CCC3(OC2)O[C@]2(O)CC[C@@]3(C)OC2(C)C)C(C)(C)[C@H]1C/C=C1\CCOC1=O (some centres undefined): 28.9
Oc1c(N2CCCCC2)cc(-c2cc(N3CCCCC3)c(O)c3ccccc23)c2ccccc12: 59.2

Could you now consider this next compound?
// query TGI value for entry CC(=O)NC1C(O[C@H]2C[C@H]3[C@@H]4CC=C5C[C@@H](O)CC[C@]5(C)[C@H]4CC[C@]3(C)[C@H]2[C@H](C)C(=O)CCC(C)C)OCC(O)C1O (some centres undefined) 10.4
